# PROTOCOL_SUMMARY: yeast display, Sf9 membrane polyspecificity reagent, FACS + sequencing; frameworks hold sequencing errors
QUANTITY_MEASURED: polyreactivity (PSR sort gate)

Example results:
MONOMER_SEQUENCE | RESULT
QVQLVESGGGLVQAGCSLRLSCAASGFIFQANAMGWYRQAPGKERELVAAIDDGDSTYADSVKGRFTISRDNAKNTVYLQMNSLKPEDTAVYYCNADLYGAQDRRLDYYAEGYWGQGTQVTVSS | low polyreactivity
QVKLVESGGGLVQAGGSLRLSCAASGSTFWIYAMAWYRQAPGKERELVAAISWRGGRTYYADSVKGRFTISRDNAKNTVYLQMNSLKPEDSAVYYCYAQKRDGSMGYWGQGTQVTVSS | high polyreactivity
QVQLVESGGGLVQAGGSLRLSCAASGITFSYYAMGWYRQAPGKERELVAVISRRGGTTYYADSVKGRFTISRDNAKNTVYLQMNSLKPEDTAVYYCAATYISVLGYEYWGQGTQVTVSS | high polyreactivity
QVQLVESGGGLVQAGGSLRLSCAASGRTFFDYTMGWYRQAPGKERELVAAITGGDGSTYYADSVKGRFTISRDNAKTTVYLQMNSLKPEDTAVYDCAAEYTRTYWYAAMDYWGQGTQVTVSS | low polyreactivity
QVQLVESGGGLVQAGGSLRLSCAASGFTIVTYAMGWYRQAPGKERELVAAISKSGGTTYYADSVKGRFTISRDNAKNTVYLQMNSLKPEDTAVYYCNKRWYIARPVDRYRYYYWGQGTQVTVSS | high polyreactivity
QVQLVESGGGLVQAGGSLRLICAASGLTFISYAMGWYRQAPGKERELVAAITYSGGSTYYADSVKGRFTISRDNAKNTVYLQMNSLKPEDTAVYYCAVEIPGLLWYLPTYDYWGQGTQVTVSS | low polyreactivity

Please go through the list and note polyreactivity (PSR sort gate) for each sequence.
1. QDQLVESGGGLVQAGGSLRLSCAASGITFDRYALGWYRQAPGKEREFVAAISWRGGSTYYADSVKGRFTISRDNAKNTVYLQMNSLKPEDTAVYYCAVGYYDHDYWYEYWGQGSQVTVSS
2. QVHLVESGGGLDQAGGSLRLSSAASGSIFDKYAMVWYRQAPGKERELVAAITSGGRTYYADSVKGRFTISRDNAKNTVYLQMNSLKPEDTAVYYCAAGARRSYYPSQYYYWGQGTQVTVSS
3. QVQLVESGGGLVQARGSLRLSCAASGTIFSSYAMGWYRQAPGKERELVAAIRWTGGSTYYADSVKGRFTISRDNAMNTVFLEMNSLKPEDTAVYFCTAEYWIDWGYDYWGQGTQVTVSS
4. QVQLVESGGGLVQAGGSLRLSCAASGFTFNQYAMGWYRQAPGKERELVAAITGSGGSTYYADSVKGRFTISRDNAKNTVYLQMNSLKPEDTAVYYCNRDRFSRFYWGQGTQVTVSS
5. QVQLVESGGGLVQAGGSLRLSCAASGFTFDENAMGWSRQAPGINYSRASTYYADSVKGRFTISRDNAKNTVYLQMISLKPEDTAVYYCNKASYWGSGFDYWGQGTQVTVSS

high polyreactivity
low polyreactivity
low polyreactivity
high polyreactivity
low polyreactivity
